The reported measurements were obtained from patent US20220133913A1.

So I've got a bunch of binders here, and I need their Kd values.
TESTED ON: T1, human αvβ3 integrin ITGAVB3 (human, UniProt P06756 31-992; P05106 27-718, limits assumed)
T1 construct: Recombinant heterodimer used as immunogen, ELISA coating and SPR ligand; also called A5B3; A5b3
T1 sequence (P06756 31-992 limits assumed, chain 1 of 2): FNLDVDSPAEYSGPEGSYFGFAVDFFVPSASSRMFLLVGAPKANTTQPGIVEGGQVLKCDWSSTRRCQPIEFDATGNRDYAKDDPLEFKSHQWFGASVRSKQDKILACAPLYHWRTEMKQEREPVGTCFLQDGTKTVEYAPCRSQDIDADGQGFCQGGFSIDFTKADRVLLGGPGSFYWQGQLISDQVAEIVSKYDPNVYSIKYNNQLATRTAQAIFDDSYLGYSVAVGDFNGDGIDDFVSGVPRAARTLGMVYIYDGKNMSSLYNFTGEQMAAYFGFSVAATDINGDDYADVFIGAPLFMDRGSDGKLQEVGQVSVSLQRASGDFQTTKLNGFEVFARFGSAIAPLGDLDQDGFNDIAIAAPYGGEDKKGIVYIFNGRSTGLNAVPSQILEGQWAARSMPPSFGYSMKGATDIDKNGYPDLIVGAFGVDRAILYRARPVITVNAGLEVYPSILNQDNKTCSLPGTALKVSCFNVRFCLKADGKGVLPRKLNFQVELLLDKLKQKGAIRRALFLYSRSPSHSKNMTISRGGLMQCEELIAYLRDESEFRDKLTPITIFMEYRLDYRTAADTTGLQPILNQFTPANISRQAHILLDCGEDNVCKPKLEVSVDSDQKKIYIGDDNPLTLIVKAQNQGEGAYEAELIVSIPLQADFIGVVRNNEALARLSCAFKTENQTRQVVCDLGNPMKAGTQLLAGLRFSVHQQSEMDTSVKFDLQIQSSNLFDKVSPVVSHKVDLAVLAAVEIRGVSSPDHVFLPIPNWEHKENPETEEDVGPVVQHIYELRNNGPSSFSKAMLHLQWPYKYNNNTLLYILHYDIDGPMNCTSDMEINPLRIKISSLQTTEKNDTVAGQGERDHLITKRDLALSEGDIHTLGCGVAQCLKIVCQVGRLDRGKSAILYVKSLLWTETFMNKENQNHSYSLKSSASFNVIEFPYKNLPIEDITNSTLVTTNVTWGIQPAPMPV
T1 sequence (P05106 27-718 limits assumed, chain 2 of 2): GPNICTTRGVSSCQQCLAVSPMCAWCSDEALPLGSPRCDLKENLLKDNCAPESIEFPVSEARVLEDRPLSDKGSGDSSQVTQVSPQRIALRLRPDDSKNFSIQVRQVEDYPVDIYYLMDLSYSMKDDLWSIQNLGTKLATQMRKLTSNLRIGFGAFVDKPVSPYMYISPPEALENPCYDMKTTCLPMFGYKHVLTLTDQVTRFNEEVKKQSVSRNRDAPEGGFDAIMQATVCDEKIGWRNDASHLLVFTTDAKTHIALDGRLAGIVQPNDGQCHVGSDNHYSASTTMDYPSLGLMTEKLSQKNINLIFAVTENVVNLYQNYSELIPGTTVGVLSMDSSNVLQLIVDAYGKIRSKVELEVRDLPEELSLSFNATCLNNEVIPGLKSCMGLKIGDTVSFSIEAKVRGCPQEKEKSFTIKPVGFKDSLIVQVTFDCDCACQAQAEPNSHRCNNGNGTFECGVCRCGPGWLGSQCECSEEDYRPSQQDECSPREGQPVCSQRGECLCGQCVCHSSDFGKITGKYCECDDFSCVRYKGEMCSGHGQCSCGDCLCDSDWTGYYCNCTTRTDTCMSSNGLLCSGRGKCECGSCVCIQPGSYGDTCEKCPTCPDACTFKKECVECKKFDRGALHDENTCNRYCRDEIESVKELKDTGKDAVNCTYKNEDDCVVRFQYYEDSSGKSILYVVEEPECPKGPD
PROCEDURE SUMMARY: SPR, αvβ3 integrin immobilised on CMDH chip, nanobody as analyte
Give bare numbers, in nM.

Request: Query Kd for single-domain antibody VHH-25 containing lysin and His6 tags (VHH, also called Nanobody #25-Lys; VHH-25-K1; not shown: C-terminal lysine tag and His6 tag with any linker) VHH: EVQLVESGGGSVQAGGSLRLSCVVSGYTCSVYDMIWYRQPPGKEREFVSLINSNGRTTYADSVKGRFTISQNNAKNTVYLQMNSLKPEDTAMYYCHAACYSPSRLNYWGQGTQVTVSS
Result: 4.64

Request: Supply recorded Kd for single-domain antibody VHH-25 containing His6 tag (VHH, also called Nanobody #25; pALT-Avb3 VHH25 product) VHH: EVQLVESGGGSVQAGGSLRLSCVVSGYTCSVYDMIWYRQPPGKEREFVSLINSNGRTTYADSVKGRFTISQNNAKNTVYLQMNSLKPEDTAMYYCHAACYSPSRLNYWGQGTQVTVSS here.
Result: 8.83

Request: Answer with the recorded Kd for the binder listed here: single-domain antibody VHH-22 containing His6 tag (VHH, also called Nanobody #22) VHH: QVQLVESGGGSVQAGGSLRLSCVVSGYTCSVYDMIWYRQPPGKEREFVSLINSNGRTTYADSVKGRFTISQNNAKNTVYLQMNSLKPEDTAMYYCHAACYSPSRLNYWGQGTLVTVSS
Result: 15.5

Now take the following binder into account.
Request: Give Kd for single-domain antibody VHH-13 containing His6 tag (VHH, also called Nanobody #13) VHH: HVQLVESGGGSVQPGESLRLSCVASGYTVSSSCMAWFRQAPGKEREVVATIVVTSDTTSTFYADSVKGRFTISPDNAKNTLNLQMNSLEPSDTAMYYCAADRKWNVCSRGYRYTPNWANQFTFWGQGTQVTVSS
Result: 9.38
